Target under test: UniProt:O15530
Sequence (O15530 1-556): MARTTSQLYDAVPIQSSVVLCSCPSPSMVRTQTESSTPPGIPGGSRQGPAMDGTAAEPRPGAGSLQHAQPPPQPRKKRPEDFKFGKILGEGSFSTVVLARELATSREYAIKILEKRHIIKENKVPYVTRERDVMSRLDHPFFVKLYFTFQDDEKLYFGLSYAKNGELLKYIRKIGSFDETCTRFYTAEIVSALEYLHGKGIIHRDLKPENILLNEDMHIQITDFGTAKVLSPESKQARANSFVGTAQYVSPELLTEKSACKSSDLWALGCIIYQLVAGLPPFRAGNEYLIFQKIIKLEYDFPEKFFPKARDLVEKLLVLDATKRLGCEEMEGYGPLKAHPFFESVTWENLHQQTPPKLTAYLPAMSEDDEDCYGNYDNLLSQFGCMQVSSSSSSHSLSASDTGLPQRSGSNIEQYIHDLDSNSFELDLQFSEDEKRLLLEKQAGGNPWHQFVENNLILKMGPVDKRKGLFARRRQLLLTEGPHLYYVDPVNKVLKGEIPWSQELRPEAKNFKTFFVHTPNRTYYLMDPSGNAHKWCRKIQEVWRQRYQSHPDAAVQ
Procedure text: PDK1 Kinase Alpha Screen Assay
Format: biochemical
Condition description: read-out: PDK1 IC50
Documented IC50 across a set of compounds

Compound: NS(=O)(=O)c1ccc(Nc2ncc3cccc(CNC4CCOCC4)c3n2)cc1
IC50: < 5 µM
//
Compound: COc1cc(Nc2ncc3ccc(OC4CCNCC4)cc3n2)cc(OC)c1
IC50: < 5 µM
//
Compound: CC(C)N1CCC(Oc2cccc3cnc(Nc4cccc(CC(N)=O)c4)nc23)CC1
IC50: < 5 µM
//
Compound: CCN1CCC[C@@H]1CNc1ccc(-c2cccc3cnc(Nc4ccc(S(N)(=O)=O)cc4)nc23)cn1
IC50: < 5 µM
//
Compound: CC(C)N1CCN(c2ccc(-c3cccc4cnc(Nc5ccc(S(N)(=O)=O)cc5)nc34)cn2)CC1
IC50: < 5 µM

**Query** Form entry - test system: UniProt:O15530; read-out: IC50; compound: CC(C)N1CCC(Oc2cccc3cnc(Nc4ccc(S(N)(=O)=O)cc4)nc23)CC1
**Result** < 5 µM

**Query** Value wanted: IC50 (UniProt:O15530) of entry CC(C)NC(=O)Cc1cccc(Nc2ncc3cccc(OC4CCN(C(C)C)CC4)c3n2)c1
**Result** < 5 µM

**Query** Item CC(C)Cn1cc(-c2ccc3cnc(Nc4ccc(S(N)(=O)=O)cc4)nc3c2OC2CCNCC2)cn1 with UniProt:O15530 - IC50?
**Result** < 5 µM
